# TESTED SYSTEM: pre-existing anti-scFv903 antibodies in human serum H81 (human)
# MEASUREMENT PROTOCOL: competition ADA bridging ELISA
PROPERTY NAME: signal change in competition ELISA (% reduction in OD) (%)
The reply should contain only the number, in %.

BINDER | RESULT NUMBER
scFv 903 (scFv) scFv: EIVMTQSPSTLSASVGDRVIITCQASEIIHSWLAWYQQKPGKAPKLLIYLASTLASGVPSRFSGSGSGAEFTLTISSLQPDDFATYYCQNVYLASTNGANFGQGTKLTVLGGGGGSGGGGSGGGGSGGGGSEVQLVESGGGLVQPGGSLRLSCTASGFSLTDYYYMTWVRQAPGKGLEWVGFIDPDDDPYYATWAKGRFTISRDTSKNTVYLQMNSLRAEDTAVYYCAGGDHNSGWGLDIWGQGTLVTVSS | -95
scFv 961 (scFv) scFv: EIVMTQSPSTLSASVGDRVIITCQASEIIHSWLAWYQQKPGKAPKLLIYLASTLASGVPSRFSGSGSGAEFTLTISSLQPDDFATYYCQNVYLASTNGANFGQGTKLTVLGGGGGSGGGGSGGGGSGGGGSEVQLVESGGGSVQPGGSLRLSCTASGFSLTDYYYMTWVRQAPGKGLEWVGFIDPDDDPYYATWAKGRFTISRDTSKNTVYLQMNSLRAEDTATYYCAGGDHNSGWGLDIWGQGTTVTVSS | -9

For scFv 791 (scFv) scFv: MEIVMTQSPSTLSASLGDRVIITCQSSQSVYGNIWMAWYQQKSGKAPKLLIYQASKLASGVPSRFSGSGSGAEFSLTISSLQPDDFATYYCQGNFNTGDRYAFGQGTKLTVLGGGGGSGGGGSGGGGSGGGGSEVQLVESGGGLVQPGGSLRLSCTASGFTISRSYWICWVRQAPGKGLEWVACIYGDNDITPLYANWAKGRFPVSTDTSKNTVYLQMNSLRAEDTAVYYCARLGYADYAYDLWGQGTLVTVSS , what is its reported signal change in competition ELISA (% reduction in OD)?
-94

Any idea what its signal change in competition ELISA (% reduction in OD) is? The binder is scFv105 (scFv) scFv: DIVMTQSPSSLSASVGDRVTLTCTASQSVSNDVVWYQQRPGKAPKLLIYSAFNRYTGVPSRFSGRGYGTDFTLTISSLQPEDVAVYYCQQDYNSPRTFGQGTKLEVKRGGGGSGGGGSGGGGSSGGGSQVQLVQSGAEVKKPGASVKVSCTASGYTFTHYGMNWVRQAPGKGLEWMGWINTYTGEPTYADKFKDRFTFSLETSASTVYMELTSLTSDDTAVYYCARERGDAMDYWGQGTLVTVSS
-18
